Each recorded value in this set is attributed to paper PMC8507260.

TARGET DESC: RXR-α (Homo sapiens, UniProt P19793)
Sequence (P19793 1-462): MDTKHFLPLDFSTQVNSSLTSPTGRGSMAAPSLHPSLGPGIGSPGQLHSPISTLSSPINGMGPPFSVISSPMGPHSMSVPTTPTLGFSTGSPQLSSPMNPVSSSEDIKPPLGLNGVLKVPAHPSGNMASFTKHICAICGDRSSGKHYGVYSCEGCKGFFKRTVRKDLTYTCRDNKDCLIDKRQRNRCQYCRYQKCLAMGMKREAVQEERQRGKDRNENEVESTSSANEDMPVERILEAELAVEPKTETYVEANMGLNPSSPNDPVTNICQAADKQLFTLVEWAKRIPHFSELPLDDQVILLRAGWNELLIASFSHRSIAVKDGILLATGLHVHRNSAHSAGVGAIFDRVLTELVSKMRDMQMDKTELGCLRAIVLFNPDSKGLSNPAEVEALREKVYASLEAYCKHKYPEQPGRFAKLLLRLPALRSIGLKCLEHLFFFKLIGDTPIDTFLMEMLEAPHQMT
ENDPOINT: pKd
Remember, pKd is on a log scale: it is -log10 of the molar concentration.

CC(/C=C/C=C(C)/C=C/C(=O)O)=C\C=C\C=C(C)\C=C\C=C(C)\C=C\C(=O)O (stereo in doubt) [norbixin, 9’-cis-norbixin] ... 4.34

Now look at this entry.
In: // lookup pKd for CC(C=CC1=C(C)CCCC1(C)C)=CC=CC(C)=Cc1cc(C=CC=C(C)C=CC2=C(C)CCCC2(C)C)cc[n+]1CCO [A2E, N-retinylidene-N-retinylethanolamine]
Out: 5.37

====

TARGET DESC: PPAR-β/δ (Homo sapiens, UniProt Q03181)
Sequence (Q03181 whole entry): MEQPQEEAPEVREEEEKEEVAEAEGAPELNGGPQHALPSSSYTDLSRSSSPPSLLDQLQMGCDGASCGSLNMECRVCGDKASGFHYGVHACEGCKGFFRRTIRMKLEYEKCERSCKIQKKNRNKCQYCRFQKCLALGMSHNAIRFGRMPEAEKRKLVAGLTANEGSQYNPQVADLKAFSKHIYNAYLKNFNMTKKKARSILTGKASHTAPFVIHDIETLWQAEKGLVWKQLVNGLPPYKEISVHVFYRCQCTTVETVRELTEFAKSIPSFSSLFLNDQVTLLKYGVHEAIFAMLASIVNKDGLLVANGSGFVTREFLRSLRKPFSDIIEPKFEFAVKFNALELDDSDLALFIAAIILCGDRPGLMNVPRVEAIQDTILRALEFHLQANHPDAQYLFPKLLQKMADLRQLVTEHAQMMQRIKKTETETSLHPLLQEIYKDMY
ASSAY OVERVIEW: In vitro antagonist assay on PPAR-β/δ
ENDPOINT: IC50

In: // lookup IC50 for CC(/C=C/C=C(C)/C=C/C(=O)O)=C\C=C\C=C(C)\C=C\C=C(C)\C=C\C(=O)O (stereo in doubt) [norbixin, 9’-cis-norbixin]
Out: 9.9 µM
